Target: ERα (Homo sapiens, UniProt P03372)
Sequence (P03372 1-595): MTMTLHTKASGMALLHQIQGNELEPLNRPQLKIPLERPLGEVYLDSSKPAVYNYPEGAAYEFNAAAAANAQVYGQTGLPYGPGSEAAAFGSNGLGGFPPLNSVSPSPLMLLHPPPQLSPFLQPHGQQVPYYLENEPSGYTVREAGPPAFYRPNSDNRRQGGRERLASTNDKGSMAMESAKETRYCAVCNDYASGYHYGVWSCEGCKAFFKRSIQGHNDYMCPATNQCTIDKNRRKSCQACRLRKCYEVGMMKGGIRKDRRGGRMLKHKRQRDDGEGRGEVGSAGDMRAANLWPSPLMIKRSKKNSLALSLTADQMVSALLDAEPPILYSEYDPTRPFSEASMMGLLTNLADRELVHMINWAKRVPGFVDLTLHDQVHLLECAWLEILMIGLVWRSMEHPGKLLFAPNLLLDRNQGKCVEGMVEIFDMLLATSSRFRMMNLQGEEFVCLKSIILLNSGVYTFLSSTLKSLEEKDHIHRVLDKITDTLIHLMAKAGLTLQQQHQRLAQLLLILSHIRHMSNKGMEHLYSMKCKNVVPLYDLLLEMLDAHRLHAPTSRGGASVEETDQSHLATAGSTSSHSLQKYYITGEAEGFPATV
Experiment: Phage ELISA / fingerprint on ER immobilized on biotinylated ERE (Examples 2.3-2.5)
Format: binding
Design: purchased PanVera Corporation, Madison, WI; key: semiquantitative scale of 0 to 7+; 1+: semiquantitative scale of 0 to 7+; 2+: semiquantitative scale of 0 to 7+; 3+: semiquantitative scale of 0 to 7+; 4+: semiquantitative scale of 0 to 7+; 5+: semiquantitative scale of 0 to 7+; 6+: semiquantitative scale of 0 to 7+; semiquantitative scale of 0 to 7+
Conditions: ERα and tamoxifen (4-OH tamoxifen, 1 µM)
value.type: binding activity, ERα and tamoxifen

{"residue.codes": "SSPGSREWFKDMLSR [Peptide 14t-β]", "system": "ERα (Homo sapiens, UniProt P03372)", "binding activity, ERα and tamoxifen": "7+"}

Given the entry SRPGCLRGVWCLADTPPSR [Peptide 20t-β] , report its measured binding activity, ERα and tamoxifen.
3+

Value lookup for binding activity, ERα and tamoxifen; key = SSWPGAEWFKEQLSR [Peptide 20b-β]
4+

Need binding activity, ERα and tamoxifen of SSQEEWLLPWRLASR [Peptide 8t-β] , thanks.
2+

Which binding activity, ERα and tamoxifen value is on record for SSAGLLEDMLRSRSR [Peptide 21E-β] ?
3+

For the sequence shown here, SSWPNPTFWERQLSR [Peptide 3b-β] , give the reported binding activity, ERα and tamoxifen.
3+

So what's the measured binding activity, ERα and tamoxifen for this one? SSRPSFTIPWWFDDPSRSR [Peptide 33E-β]
2+

// returns reported binding activity, ERα and tamoxifen for input SREWEDGFGGRWLSR [Peptide 4t-β]
3+

Bench note: what binding activity, ERα and tamoxifen did SSIKDFPNLISLLSR [Peptide 12E-β] show?
2+

For the sequence shown here, SSLKCLLQSSPQKQPFCSR [Peptide 19E-β] , give the reported binding activity, ERα and tamoxifen.
3+

What value of measured binding activity, ERα and tamoxifen is listed for SSLQAGSWLMHYLRGGDSR [Peptide 23E-β] ?
5+

// query binding activity, ERα and tamoxifen value for entry SRLNGVFCHDSSDLWVCSR [Peptide 18t-β]
7+

Looking for the measured binding activity, ERα and tamoxifen of HSYSSHPLLLSYLWGG [Peptide 23b-β] , can you help?
3+

If you can, please state the reported binding activity, ERα and tamoxifen value of SRLEELLRVGVLTSR [Peptide 6E-β] .
3+

# query: binding activity, ERα and tamoxifen of entry HSWLGPWRLSSIDLGG [Peptide 24b-β]
3+

Quick check: binding activity, ERα and tamoxifen of SSHCHTRLCSLLTSR [Peptide 15E-β] ?
5+

// returns reported binding activity, ERα and tamoxifen for input SSRTLYCHLTSSNPEWCSR [Peptide 27E-β]
3+

Where these numbers come from: patent EP1073891B1
